Hey, just so you know, these numbers are from ChEMBL document CHEMBL4842369.

Listed here: items and their measured pIC50.
# EXPERIMENTAL SYSTEM: Nonstructural protein 3 (Zika virus)
# ASSAY NOTES: Inhibition of Zika virus recombinant NS2B (47 to 95 residues)/NS3 (1 to 177 residues) protease expressed in Escherichia coli BL21 using Bz-Nle-Lys-Lys-Arg-AMC as substrate preincubated for 10 mins by fluorescence-based biochemical assay
Note on pIC50: it is the negative log10 of concentration, concentration in mol/L.

- O=C(NCC1CCNCC1)c1c[nH]c2nc(-c3ccc(C(F)(F)F)cc3)ccc12: 4.74
- O=C(NCC1CCNCC1)c1c[nH]c2cc(-c3ccc(Cl)nc3)ccc12: 4.38

Short answer please: pIC50, Nonstructural protein 3 (Zika virus), entry O=C(NCCC1CCNCC1)c1c[nH]c2cc(-c3ccncc3)ccc12
6.20

Now give it for O=C(NCC1CCNCC1)c1c[nH]c2nc(-c3ccc(CN4CCCCC4)cc3)ccc12 too.
6.35

Now give it for O=C(NCC1CCNCC1)c1cc2ccc(-c3ccc(F)cc3)cc2[nH]1 too.
4.84

Now give it for NCc1ccc(-c2ccc3cc(C(=O)NCC4CCNCC4)[nH]c3c2)cc1 too.
5.49

Now give it for O=C(NCC1CCNCC1)c1c[nH]c2cc(-c3ccc(CN4CCCCC4)cc3)ccc12 too.
5.51

Now give it for O=C(NCC1CCNCC1)c1cc2cc(-c3ccc(CN4CCCCC4)cc3)ccc2[nH]1 too.
5.33

Now give it for NC(=O)c1ccc(-c2ccc3cc(C(=O)NCC4CCNCC4)[nH]c3c2)cc1 too.
5.15

====

# EXPERIMENTAL SYSTEM: Nonstructural protein 3 (Zika virus, UniProt A0A024AXB9)
# Sequence (A0A024AXB9 whole entry, the tested form may be a part): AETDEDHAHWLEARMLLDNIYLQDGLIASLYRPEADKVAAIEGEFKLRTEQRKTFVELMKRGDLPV
# ASSAY NOTES: Inhibition of Zika virus recombinant NS2B (47 to 95 residues)/NS3 (1 to 177 residues) protease expressed in Escherichia coli BL21 using Bz-Nle-Lys-Lys-Arg-AMC as substrate preincubated for 10 mins by fluorescence-based biochemical assay
PROPERTY NAME: log10 of IC50 (log10 of the value in µM)
In our notation, the value equals log10 of IC50 in µM.

* O=C(NCC1CCNCC1)c1cc2cc(-c3ccc(N4CCCC4)cc3)ccc2[nH]1 | 0.53
* O=C(NCC1CCNCC1)c1c[nH]c2cc(-c3ccc(-c4ccccc4)cc3)ccc12 | 0.62
* O=C(NCC1CCNCC1)c1cc2ccc(-c3cn[nH]c3)cc2[nH]1 | 0.00

I'd like to know its log10 of IC50. The compound in question is CC(C)(C)c1ccc(-c2ccc3c(c2)c(C(=O)NCC2CCNCC2)cn3CCCC2CCNCC2)cc1
1.16

Now give it for O=C(NCC1CCNCC1)c1c[nH]c2cc(-c3ccncc3)ccc12 too.
-0.41

====

# EXPERIMENTAL SYSTEM: UniProtKB A0A024AXB9
# ASSAY NOTES: Inhibition of Zika virus recombinant NS2B (47 to 95 residues)/NS3 (1 to 177 residues) protease expressed in Escherichia coli BL21 using Bz-Nle-Lys-Lys-Arg-AMC as substrate preincubated for 10 mins by fluorescence-based biochemical assay
pIC50: −log10 of the molar value.
Is pIC50 at least 5? Then Met. If not, Not met.

• O=C(NCC1CCNCC1)c1cc2ccc(C3=CCNCC3)cc2[nH]1 = Not met
• O=C(NCC1CCNCC1)c1cc2ccc(-c3ccc(CCO)cc3)cc2[nH]1 = Not met
• N#Cc1ccc(-c2ccc3c(C(=O)NCC4CCNCC4)c[nH]c3c2)cc1 = Not met
• CC(C)(C)c1ccc(-c2ccc3c(C(=O)NCC4CCNCC4)c[nH]c3c2)cc1 = Met
• O=C(NCC1CCNCC1)c1cc2ccc(-c3ccoc3)cc2[nH]1 = Met
• CC(C)(C)c1ccc(-c2ccc3[nH]c(C(=O)NCC4CCNCC4)cc3c2)cc1 = Met
• O=C(NCC1CCNCC1)c1cc2ccc(-c3ccsc3)cc2[nH]1 = Met
• NCc1ccc(-c2ccc3c(C(=O)NCC4CCNCC4)c[nH]c3c2)cc1 = Not met
• O=C(NCC1CCNCC1)c1c[nH]c2cc(-c3ccoc3)c(-c3ccoc3)cc12 = Met
• N#Cc1ccc(-c2ccc3[nH]cc(C(=O)NC4CCNCC4)c3c2)cc1 = Not met

Does the reported pIC50 for CC(C)(C)c1ccc(-c2ccc3c(ccn3Cc3ccc(-c4ccncc4)cc3)c2)cc1 fall at or above the 5 mark?
Not met

Now give it for COc1cc(-c2ccc3[nH]cc(C(=O)NC4CCNCC4)c3c2)cc(OC)c1OC too.
Not met

====

# EXPERIMENTAL SYSTEM: Nonstructural protein 3 (Zika virus)
# ASSAY NOTES: Inhibition of Zika virus recombinant NS2B (47 to 95 residues)/NS3 (1 to 177 residues) protease expressed in Escherichia coli BL21 using Bz-Nle-Lys-Lys-Arg-AMC as substrate preincubated for 10 mins by fluorescence-based biochemical assay
pIC50: −log10 of the molar value.
Is pIC50 at least 5? Then 1. If not, -1.

Does the reported pIC50 for Cc1cc(C#N)ccc1-c1ccc2[nH]c(C(=O)NCC3CCNCC3)cc2c1 fall at or above the 5 mark?
-1

Now give it for O=C(NCC1CCNCC1)c1c[nH]c2cc(-c3cccnc3)ccc12 too.
1

Now give it for O=C(NC1CCNCC1)c1c[nH]c2cc(-c3ccncc3)ccc12 too.
1

Now give it for O=C(NCC1CCNCC1)c1cc2ccc(-c3ccc(N4CCNCC4)cc3)cc2[nH]1 too.
1

Now give it for O=Cc1cccc(-c2ccc3[nH]cc(C(=O)NCC4CCNCC4)c3c2)c1 too.
-1

Now give it for O=C(NCC1CCNCC1)c1c[nH]c2cc(-c3ccc(F)cc3)ccc12 too.
-1

Now give it for CC(C)(C)c1ccc(-c2ccc3c(ccn3Cc3ccc(-c4ccoc4)cc3)c2)cc1 too.
-1

Now give it for O=C(NC1CCNCC1)c1coc2cc(-c3ccoc3)ccc12 too.
1

Now give it for N#Cc1cccc(-c2ccc3[nH]c(C(=O)NCC4CCNCC4)cc3c2)c1 too.
-1

Now give it for O=C(NCC1CCNCC1)c1c[nH]c2nc(-c3ccc(CN4CCOCC4)cc3)ccc12 too.
1

Now give it for O=C(NCC1CCNCC1)c1cc2cc(-c3cn[nH]c3)ccc2[nH]1 too.
1

Now give it for COc1cc(-c2ccc3c(C(=O)NCC4CCNCC4)c[nH]c3c2)cc(OC)c1OC too.
-1

====

# EXPERIMENTAL SYSTEM: Nonstructural protein 3 (Zika virus, UniProt A0A024AXB9)
# ASSAY NOTES: Inhibition of Zika virus recombinant NS2B (47 to 95 residues)/NS3 (1 to 177 residues) protease expressed in Escherichia coli BL21 using Bz-Nle-Lys-Lys-Arg-AMC as substrate preincubated for 10 mins by fluorescence-based biochemical assay
pIC50: −log10 of the molar value.
Is pIC50 at least 5? Then condition met. If not, condition not met.

Study these solved cases before continuing.
- O=C(NCC1CCNCC1)c1c[nH]c2nc(-c3ccncc3)ccc12: condition met
- COc1ccc(-c2ccc3cc(C(=O)NCC4CCNCC4)[nH]c3c2)cc1: condition met
- Cc1ccc(-c2ccc3c(C(=O)NCC4CCNCC4)c[nH]c3c2)cc1: condition not met
- O=C(NCC1CCNCC1)c1cc2ccc(-c3ccc(CO)cc3)cc2[nH]1: condition met
- O=C(NCC1CCNCC1)c1cc2cc(-c3ccc(-c4ccsc4)cc3)ccc2[nH]1: condition met

Does the reported pIC50 for O=C(NCC1CCNCC1)c1c[nH]c2ccc(-c3ccc(F)cc3)cc12 fall at or above the 5 mark?
condition not met

Now give it for O=C(NCC1CCNCC1)c1cc2cc(-c3ccc(-c4ccoc4)cc3)ccc2[nH]1 too.
condition met

Now give it for O=C(NCC1CCNCC1)c1cc2ccc(-c3ccncc3)cc2[nH]1 too.
condition not met

Now give it for N#Cc1ccc(-c2ccc3c(C(=O)NC4CCNCC4)coc3c2)cc1 too.
condition not met

Now give it for O=C(NCC1CCNCC1)c1cc2ccc(C3=CCOCC3)cc2[nH]1 too.
condition met

====

Listed here: items and their measured pIC50.
# EXPERIMENTAL SYSTEM: Nonstructural protein 3 (Zika virus)
# ASSAY NOTES: Inhibition of Zika virus recombinant NS2B (47 to 95 residues)/NS3 (1 to 177 residues) protease expressed in Escherichia coli BL21 using Bz-Nle-Lys-Lys-Arg-AMC as substrate preincubated for 10 mins by fluorescence-based biochemical assay
Note on pIC50: it is the negative log10 of concentration, concentration in mol/L.

Sample records with pIC50:
• O=C(NCC1CCNCC1)c1cc2cc(-c3ccc(N4CCCCC4)cc3)ccc2[nH]1 = 4.94
• NCc1ccc(-c2ccc3[nH]c(C(=O)NCC4CCNCC4)cc3c2)cc1 = 5.02
• O=C(NCC1CCNCC1)c1cc2ccc(-c3ccccc3)cc2[nH]1 = 5.03

I'd like to know its pIC50. The compound in question is CC(C)(C)c1ccc(-c2ccc3[nH]cc(C(=O)NCC4CCNCC4)c3c2)cc1
4.96
